- Tested on: RAW 264.7 cells
- Test details: Nitric oxide suppression assay (IFNγ-induced NO production)
- Type: cell-based, mouse
- Condition details: average of ratios from replicate experiments; benchmark RTA 402
Exercise: state measured NO IC50 Relative to RTA 402 (fold) (Mean ± SD) for each of the compounds provided.
State the answer as a number, implicitly in fold.

Q: Can you share its NO IC50 Relative to RTA 402 (fold) (Mean ± SD)? I mean this compound: CCNC(=O)NCCc1noc([C@]23CCC(C)(C)C[C@H]2[C@H]2C(=O)C=C4[C@@]5(C)C=C(C#N)C(=O)C(C)(C)[C@@H]5CC[C@@]4(C)[C@]2(C)CC3)n1 [Compound T18]
A: 0.86

Q: Can you share its NO IC50 Relative to RTA 402 (fold) (Mean ± SD)? I mean this compound: CC1(C)CC[C@]2(c3noc(CN)n3)CC[C@]3(C)[C@H](C(=O)C=C4[C@@]5(C)C=C(C#N)C(=O)C(C)(C)[C@@H]5CC[C@]43C)[C@@H]2C1 [Compound T2]
A: 0.38

Q: Can you share its NO IC50 Relative to RTA 402 (fold) (Mean ± SD)? I mean this compound: CC1(C)CC[C@]2(c3nc(CCO)no3)CC[C@]3(C)[C@H](C(=O)C=C4[C@@]5(C)C=C(C#N)C(=O)C(C)(C)[C@@H]5CC[C@]43C)[C@@H]2C1 [Compound T13]
A: 0.22
